Recorded pIC50 by entry
system.under.test: UniProt:O14649
measurement.protocol: Determination of the activity on the TASK-1 channel in Xenopus oocytes (two-microelectrode voltage clamp)
assay.context: human TASK-1 expressed in Xenopus oocytes, room temperature; read-out: IC50 value for TASK-1 inhibition
# pIC50 is unitless: minus log10 of the molar concentration; print number only

Check out these entries, answers already filled in.
molecule="C[C@@H](NC(=O)c1cc(C(=O)N[C@H](C)c2ccc(F)cc2)n2c1COCC2)c1ccccc1 [16dn]" reported_result=7.30
molecule="CC[C@@H](NC(=O)c1cc(C(=O)NCc2nccs2)n2c1COCC2)c1ccccc1 [16il]" reported_result=6.77

Problem: Sample C[C@@H](NC(=O)c1cc(C(=O)N2CCC[C@@H]2C)n2c1CCCC2)c1ccc(Cl)cc1 [16ly] — what was its pIC50?
Solution: 7.04

Problem: Another molecule to check: CCC(NC(=O)c1cc(C(=O)N[C@H](CC)c2ccccc2)c2n1CCOC2)c1ccc(C)nc1 (stereo partly drawn) [16ho]
Solution: 6.14

Problem: Same lookup for CC[C@@H](NC(=O)c1cc(C(=O)N2CCC[C@@H]2C)n2c1COCC2)c1ccccc1Cl [16q] , please.
Solution: 7.19

Problem: Can you handle CC[C@@H](NC(=O)c1cc(C(=O)N2CCC[C@@H]2C)n2c1COCC2)c1ccc(F)cc1Cl [16u] next?
Solution: 7.31

Problem: Again, but for CC[C@@H](NC(=O)c1cc(C(=O)N[C@H](CC)c2ncccc2OC)n2c1COCC2)c1ccccc1 [16ia]
Solution: 6.92

====

system.under.test: Human TASK-1 channels (Homo sapiens (Human), UniProt O14649)
Sequence (O14649 whole entry): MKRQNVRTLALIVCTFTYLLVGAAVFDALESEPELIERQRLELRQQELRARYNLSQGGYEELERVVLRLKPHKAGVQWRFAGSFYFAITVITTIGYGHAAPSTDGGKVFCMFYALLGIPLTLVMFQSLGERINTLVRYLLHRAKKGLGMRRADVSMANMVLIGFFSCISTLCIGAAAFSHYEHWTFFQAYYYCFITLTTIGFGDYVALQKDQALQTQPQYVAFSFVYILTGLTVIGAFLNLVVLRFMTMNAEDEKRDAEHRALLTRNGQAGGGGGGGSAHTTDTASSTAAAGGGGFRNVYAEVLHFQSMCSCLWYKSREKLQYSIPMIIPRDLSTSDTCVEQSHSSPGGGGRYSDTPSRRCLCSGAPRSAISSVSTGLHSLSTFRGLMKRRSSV
measurement.protocol: Determination of the activity on the TASK-1 channel in Xenopus oocytes (two-microelectrode voltage clamp)
assay.context: human TASK-1 expressed in Xenopus oocytes, room temperature; read-out: IC50 value for TASK-1 inhibition
pIC50: −log10 of the molar value.
Use true when the recorded pIC50 is no lower than 6; use false when it is lower.

Field: example entries. Status: answers known.
molecule="CC[C@@H](NC(=O)c1cc(C(=O)Nc2c(C)noc2C)n2c1COCC2)c1ccccc1 [16hg]" system_under_test="Human TASK-1 channels (Homo sapiens (Human), UniProt O14649)" category_label=true
molecule="CCOC(=O)[C@H](C)N(C)C(=O)c1cc(C(=O)N[C@H](CC)c2ccccc2)c2n1CCOC2 [16l]" system_under_test="Human TASK-1 channels (Homo sapiens (Human), UniProt O14649)" category_label=true
molecule="CC[C@@H](NC(=O)c1cc(C(=O)N(C)Cc2ncccn2)n2c1COCC2)c1ccccc1 [16jc]" system_under_test="Human TASK-1 channels (Homo sapiens (Human), UniProt O14649)" category_label=false
molecule="CC[C@@H](NC(=O)c1cc(C(=O)NC(C)c2ncccn2)c2n1CCOC2)c1ccccc1 (mixture of isomers) [16ka]" system_under_test="Human TASK-1 channels (Homo sapiens (Human), UniProt O14649)" category_label=true
molecule="CC[C@@H](NC(=O)c1cc(C(=O)N2CC[C@H](OC)C2)n2c1COCC2)c1ccc(F)cc1Cl [16nn]" system_under_test="Human TASK-1 channels (Homo sapiens (Human), UniProt O14649)" category_label=true

Problem: hey, is pIC50 for this one >= 6? CC(NC(=O)c1cc(C(=O)N[C@H](C)c2ccc(F)cc2)n2c1CCCC2)c1ncccn1 (stereo partly shown) [16lu]
Solution: true

Problem: Also, CC[C@@H](NC(=O)c1cc(C(=O)N2CCN(CCC(F)(F)F)C[C@@H]2C)n2c1COCC2)c1ccccc1 [16ft] please.
Solution: false

Problem: Entry C[C@H]1CCCN1C(=O)c1cc(C(=O)N[C@H]2CCc3nc(C(F)(F)F)ccc32)c2n1CCOC2 (racemic) [16cu] please
Solution: false

Problem: Now try CC[C@@H](NC(=O)c1cc(C(=O)N2CCC[C@@H]2C)n2c1COCC2)c1ccc(C#N)s1 [16rd] .
Solution: true

Problem: Same again, this time with CC[C@@H](NC(=O)c1cc(C(=O)N2CCC[C@@H]2C)n2c1COC(C)(C)C2)c1ccc(C#N)cc1 [16nx]
Solution: true

Problem: Continue with CC[C@@H](NC(=O)c1cc(C(=O)N2CCC[C@@H]2C)n2c1COCC2)c1cnc(OC)c(Cl)c1 [16b]
Solution: true

Problem: Here is the next molecule: CCOC(=O)[C@H]1CCCN1C(=O)c1cc(C(=O)N[C@H](CC)c2ccccc2)c2n1CCOC2 [16ff]
Solution: true

====

// reported inhibition at 5 µM for each item listed
system.under.test: Human TASK-1 channels (Homo sapiens (Human))
measurement.protocol: Determination of the activity on the TASK-1 channel in Xenopus oocytes (two-microelectrode voltage clamp)
Format: cell-based
assay.context: compound concentration 5 μM
Procedure: Determination of the activity on the TASK-1 channel in Xenopus oocytes Human TASK-1 channels were expressed in Xenopus oocytes. For this purpose, oocytes were isolated from Xenopus laevis and defoliculated. […] After two days of TASK-1 protein expression, TASK-1 currents were measured by two-microelectrode voltage clamp. […] Oocytes were clamped to −90 mV and TASK-1 mediated currents were measured during 500 ms voltage pulses to 40 mV. […]
Give just the numeric value; % need not be written.

Problem: # inhibition at 5 µM lookup, item CC[C@H](NC(=O)c1cc(C(=O)N2CCC[C@@H]2C)n2c1COCC2)c1ccc(C(F)(F)F)c(F)c1 [16bn]
Solution: 63

Problem: Can you handle CC[C@@H](NC(=O)c1cc(C(=O)N2CCC[C@@H]2C)n2c1COCC2)c1cnc(C(F)(F)F)nc1 [16bt] next?
Solution: 47

Problem: And then C[C@@H](NC(=O)c1cc(C(=O)NCC2CC2)c2n1CCOC2)c1ccc(F)cc1 [16ds] , what is it?
Solution: 89

====

system.under.test: Human TASK-1 channels (Homo sapiens (Human), UniProt O14649)
measurement.protocol: Determination of the activity on the TASK-1 channel in Xenopus oocytes (two-microelectrode voltage clamp)
assay.context: human TASK-1 expressed in Xenopus oocytes, room temperature; read-out: IC50 value for TASK-1 inhibition
pIC50: −log10 of the molar value.
Label False if pIC50 falls below 7; label True in every other case.

Worked examples, 4 compounds total:
compound="CC[C@@H](NC(=O)c1cc(C(=O)N[C@H](C)c2ccc(F)cc2)n2c1COCC2)c1ccc(C(F)(F)F)cn1 [16eg]" category_label=True
compound="CC[C@@H](NC(=O)c1cc(C(=O)NCC2(O)CC2)n2c1COCC2)c1ccccc1 [16hi]" category_label=False
compound="CC[C@@H](NC(=O)c1cc(C(=O)N2CCC[C@@H]2C)n2c1COCC2)c1cc(F)c(C#N)c(F)c1 [16ca]" category_label=False
compound="CC[C@@H](NC(=O)c1cc(C(=O)N[C@H](C)c2ccc(F)cc2)n2c1COCC2)c1ccc(OC)nc1 [16du]" category_label=False

Problem: Reported pIC50 reaches at least 7 for CC[C@@H](NC(=O)c1cc(C(=O)N2CCCC2)n2c1COCC2)c1ccccc1Cl [16cy] ?
Solution: False

====

system.under.test: Human TASK-1 channels (Homo sapiens (Human), UniProt O14649)
measurement.protocol: Determination of the activity on the TASK-1 channel in Xenopus oocytes (two-microelectrode voltage clamp)
assay.context: human TASK-1 expressed in Xenopus oocytes, room temperature; read-out: IC50 value for TASK-1 inhibition
observable: IC50 (nM)
Answer with a number only, understood to be in nM.

Problem: Item CC[C@@H](NC(=O)c1cc(C(=O)N2CCC[C@@H]2c2ccccc2)n2c1CCCC2)c1ccccc1 [16mm] with Human TASK-1 channels (Homo sapiens (Human), UniProt O14649) - IC50?
Solution: 120

Problem: // same read-out, input: CC[C@@H](NC(=O)c1cc(C(=O)N[C@H](C)c2ccc(F)cc2)n2c1COCC2)c1ccc(C#N)cc1 [16ec]
Solution: 600

Problem: # repeat for CC[C@@H](NC(=O)c1cc(C(=O)N[C@H](CC)c2cccc(O)c2)n2c1COCC2)c1ccccc1 [16ix]
Solution: 360

Problem: Do the same for CC[C@@H](NC(=O)c1cc(C(=O)NCCc2ccc(F)cc2)n2c1CCCC2)c1ccccc1 [16mx] please
Solution: 97

====

Listed here: items and their measured pIC50.
system.under.test: Human TASK-1 channels (Homo sapiens (Human))
measurement.protocol: Determination of the activity on the TASK-1 channel in Xenopus oocytes (two-microelectrode voltage clamp)
assay.context: human TASK-1 expressed in Xenopus oocytes, room temperature; read-out: IC50 value for TASK-1 inhibition
Please note pIC50 is a logarithmic value: minus log10 of concentration in mol/L. Answer with that number alone.

Some solved cases for reference:
compound="CC[C@@H](NC(=O)c1cc(C(=O)N2CCC[C@@H]2C)n2c1COCC2)c1ccc(C(F)(F)F)cc1 [16f]" observable=pIC50 reported_result=7.17
compound="CC[C@@H](NC(=O)c1cc(C(=O)NCc2ccccc2)n2c1CCCC2)c1ccccc1 [16nf]" observable=pIC50 reported_result=6.96
compound="C[C@@H](NC(=O)c1cc(C(=O)N[C@H](C)c2ccccc2F)c2n1CCOC2)c1ccc(F)cc1 [16dq]" observable=pIC50 reported_result=6.66
compound="CC[C@@H](NC(=O)c1cc(C(=O)N2CCC[C@@H]2C)n2c1COCC2)c1ccc(C(F)(F)F)c(Cl)c1 [16c]" observable=pIC50 reported_result=7.89
compound="CC[C@@H](NC(=O)c1cc(C(=O)NC(C)c2cnccn2)c2n1CCOC2)c1ccc(F)cc1F (single isomer, unassigned) [16pk]" observable=pIC50 reported_result=6.72
compound="CC[C@@H](NC(=O)c1cc(C(=O)Nc2nc(C)c(C)s2)c2n1CCOC2)c1ccccc1 [16ju]" observable=pIC50 reported_result=6.03
compound="CC[C@@H](NC(=O)c1cc(C(=O)NCc2nnn(C)n2)n2c1COCC2)c1ccccc1 [16rs]" observable=pIC50 reported_result=5.60
compound="CC[C@@H](NC(=O)c1cc(C(=O)N(C)CC2CC2)n2c1COCC2)c1ccccc1 [16he]" observable=pIC50 reported_result=6.31
compound="CC[C@@H](NC(=O)c1cc(C(=O)N2CCCCCC2)n2c1CCCC2)c1ccccc1 [16mr]" observable=pIC50 reported_result=6.70
compound="CC[C@@H](NC(=O)c1cc(C(=O)N2CCC[C@@H]2C)n2c1CCCC2)c1ccc(C#N)nc1 [16lv]" observable=pIC50 reported_result=5.68

Problem: Which pIC50 is reported for this compound? CC[C@@H](NC(=O)c1cc(C(=O)N2CCC[C@@H]2C)n2c1COCC2)c1ccc(F)c(C#N)c1 [16gq]
Solution: 6.31

Problem: Another compound to check: CC[C@@H](NC(=O)c1cc(C(=O)NCc2ncccn2)c2n1CCOC2)c1ccccc1 [16jm]
Solution: 5.82

Problem: Then CC[C@@H](NC(=O)c1cc(C(=O)N2CCC[C@@H]2C)n2c1CCCC2)c1ccc(C(F)(F)F)nc1 [16lw] ?
Solution: 6.22

Problem: Check CCO[C@H]1CCN(C(=O)c2cc(C(=O)N[C@H](CC)c3ccccc3)c3n2CCOC3)C1 [16es] too.
Solution: 5.74

Problem: Record: C[C@@H](NC(=O)c1cc(C(=O)N[C@H](C)c2ccc(F)cc2)n2c1COCC2)c1cccc(F)c1 [16do]
Solution: 6.72

Problem: Moving on to the next compound: CC(C)[C@@H](NC(=O)c1cc(C(=O)N2CCC[C@@H]2C)c2n1CCOC2)c1ccc(F)cc1 [16lj]
Solution: 6.70
